All figures here come from PubChem BioAssay.

protocol summary: inhibitors of hydroxyurea-induced Chk1 phosphorylation, primary screen, imaging, HeLa, phospho-Chk1 antibody, percent positive cells (AID 1186)
test conditions: hydroxyurea-induced phospho-Chk1 immunofluorescence imaging, higher = more signal
Consider the following partition of reported z-score into named classes: bottom bin = under -0.2, middle bin = from -0.2 up to 0.2, top bin = 0.2 and over

[ask] Dear colleague, I would appreciate it if you could identify the bin for `COc1ccc(C(=O)Nc2cccc(CN3C(=O)[C@]4(O[C@H](CC(=O)N5CCC[C@H]5CO)[C@@H]([Si](C)(C)c5ccc(OC)cc5)[C@@H]4C)c4ccccc43)c2)cc1` and reply at your convenience.
[reply] middle bin

[ask] Dear colleague, I would appreciate it if you could identify the bin for `Cc1ccc(S[C@]2(C(=O)NCC(C)C)CC(=O)N(Cc3ccccc3Cl)[C@@H]2c2ccc(CO)cc2)cc1` and reply at your convenience.
[reply] top bin

[ask] Dear colleague, I would appreciate it if you could identify the bin for `CC(C)CNC(=O)[C@@]1(c2ccc([N+](=O)[O-])cc2)CC(=O)N(CC23CC4CC(CC(C4)C2)C3)[C@@H]1c1ccc(CO)cc1I` and reply at your convenience.
[reply] bottom bin

[ask] Dear colleague, I would appreciate it if you could identify the bin for `C[C@]1(C(=O)NCc2ccccc2)c2ccccc2C(=O)N(Cc2ccc(OC(F)(F)F)cc2)[C@H]1c1ccc(CO)cc1` and reply at your convenience.
[reply] bottom bin

[ask] Dear colleague, I would appreciate it if you could identify the bin for `O=C/C=C/c1ccc2c(c1)OCO2` and reply at your convenience.
[reply] top bin

[ask] Dear colleague, I would appreciate it if you could identify the bin for O=C1C2C=CC(C(O)c3ccc(B(O)O)cc3)N(Nc3ccccc3)C2C(=O)N1c1ccccc1 (stereo not drawn) and reply at your convenience.
[reply] middle bin

[ask] Dear colleague, I would appreciate it if you could identify the bin for C=CC(COC(C)=O)NS(=O)(=O)c1ccc(Br)cc1 (stereo not drawn) and reply at your convenience.
[reply] top bin

[ask] Dear colleague, I would appreciate it if you could identify the bin for `COc1ccc(C#Cc2ccc3c(c2)[C@]2(C(=O)N3)[C@H](c3ccc(O)cc3)N3[C@H](c4ccccc4)[C@H](c4ccccc4)OC(=O)[C@H]3[C@@H]2C(=O)N2CCCCCCC2)cc1` and reply at your convenience.
[reply] middle bin

[ask] Dear colleague, I would appreciate it if you could identify the bin for `O=C1O[C@H](c2ccccc2)[C@H](c2ccccc2)N2[C@H]1[C@@H](C(=O)O)[C@]1(C(=O)Nc3ccc(C#CC4(O)CCCCCC4)cc31)[C@H]2c1ccc(OCCO)cc1` and reply at your convenience.
[reply] middle bin

[ask] Dear colleague, I would appreciate it if you could identify the bin for `COC(=O)C(CC#Cc1ccc2c(c1)[C@]1(C(=O)N2)[C@H](c2ccc(OCCO)cc2)N2[C@H](c3ccccc3)[C@H](c3ccccc3)OC(=O)[C@H]2[C@@H]1C(=O)NC[C@H](O)c1ccccc1)C(=O)OC` and reply at your convenience.
[reply] middle bin

[ask] Dear colleague, I would appreciate it if you could identify the bin for `COCCOC(=O)N1C(=O)[C@@]2(c3cc(C#CCNC(N)=O)ccc31)[C@H](C(=O)N1CCc3cc(OC)c(OC)cc3C1)[C@H]1C(=O)O[C@H](c3ccccc3)[C@H](c3ccccc3)N1[C@@H]2c1ccc(OCCO)cc1` and reply at your convenience.
[reply] middle bin

[ask] Dear colleague, I would appreciate it if you could identify the bin for `O=C1O[C@H](c2ccccc2)[C@H](c2ccccc2)N2[C@H]1[C@@H](C(=O)Nc1nc3ccccc3s1)[C@]1(C(=O)Nc3ccccc31)[C@H]2c1ccc(O)cc1` and reply at your convenience.
[reply] top bin

[ask] Dear colleague, I would appreciate it if you could identify the bin for `COC(=O)[C@@]1(Cc2ccccc2)[C@H]2c3cc(C(=O)N(C)C)n(Cc4cc(C)n(C)n4)c3C[C@H]2CN1C(=O)c1ccccc1` and reply at your convenience.
[reply] top bin

[ask] Dear colleague, I would appreciate it if you could identify the bin for `CC(C)C[C@@H]1NC(=O)[C@@H]2C[C@H](C(=O)NCCCCCC[N+](C)(C)C)[C@H](c3ccc(O)cc3)N2C1=O` and reply at your convenience.
[reply] bottom bin

[ask] Dear colleague, I would appreciate it if you could identify the bin for `Cc1ccc(S[C@]2(C(=O)O)CC(=O)N(C3Cc4ccccc4C3)[C@@H]2c2ccc(CO)cc2I)cc1` and reply at your convenience.
[reply] top bin

[ask] Dear colleague, I would appreciate it if you could identify the bin for `CCOC(=O)C[C@H]1[C@H](OC(=O)c2ccc(-c3ccccc3)cc2)[C@@H](NC(=O)c2ccc3ccccc3c2)c2cc(OCCCO)ccc2N1C(=O)Cc1ccc(OC)cc1` and reply at your convenience.
[reply] middle bin

[ask] Dear colleague, I would appreciate it if you could identify the bin for O=C1C2C=CC(C(O)c3ccc(F)cc3)N(Nc3ccccc3)C2C(=O)N1c1ccccc1 (stereo not drawn) and reply at your convenience.
[reply] middle bin

[ask] Dear colleague, I would appreciate it if you could identify the bin for `CCOC(=O)C[C@H]1[C@H](OC(=O)Cc2ccc3c(c2)OCO3)[C@@H](NC(=O)C2CCCCC2)c2cc(OCCCO)ccc2N1C(=O)Cc1ccc(OC)cc1` and reply at your convenience.
[reply] bottom bin

[ask] Dear colleague, I would appreciate it if you could identify the bin for [N-]=[N+]=NCc1ccccc1C[C@]1(C(=O)NCC(O)CO)N=C(c2ccc(OCCCO)cc2)O[C@H]1c1ccccc1N=[N+]=[N-] (stereo partly drawn) and reply at your convenience.
[reply] bottom bin

[ask] Dear colleague, I would appreciate it if you could identify the bin for `COCCOC(=O)N1C(=O)[C@@]2(c3cc(C#Cc4ccc(OC)cc4)ccc31)[C@H](C(=O)N1CCN(c3ncccn3)CC1)[C@H]1C(=O)O[C@H](c3ccccc3)[C@H](c3ccccc3)N1[C@@H]2c1ccc(O)cc1` and reply at your convenience.
[reply] middle bin

[ask] Dear colleague, I would appreciate it if you could identify the bin for `[N-]=[N+]=Nc1ccccc1C[C@]1(C(=O)NCCN2CCOCC2)N=C(c2ccc(OCCCO)cc2)O[C@H]1c1ccccc1` and reply at your convenience.
[reply] middle bin

[ask] Dear colleague, I would appreciate it if you could identify the bin for `C=C[C@H](C)[C@@H](O)c1ccc(O)c2ccccc12` and reply at your convenience.
[reply] top bin

[ask] Dear colleague, I would appreciate it if you could identify the bin for `NCCCCCNC(=O)[C@H]1C[C@H]2C(=O)NCC(=O)N2[C@H]1c1cccc(OCCO)c1` and reply at your convenience.
[reply] middle bin

[ask] Dear colleague, I would appreciate it if you could identify the bin for `CC(=O)NCCCC[C@@H]1NC(=O)[C@@H]2C[C@H](C(=O)NCCCCCCNC(=O)CS)[C@H](c3ccc(O)cc3)N2C1=O` and reply at your convenience.
[reply] top bin

[ask] Dear colleague, I would appreciate it if you could identify the bin for CCOC(=O)C1=CCC(c2ccc(C#N)cc2)N(S(=O)(=O)c2ccc(C)cc2)C1 (stereo not drawn) and reply at your convenience.
[reply] bottom bin

[ask] Dear colleague, I would appreciate it if you could identify the bin for `C=C(COC)C(=O)CC[C@H](OC(C)=O)c1cccc(OCCO)c1` and reply at your convenience.
[reply] top bin

[ask] Dear colleague, I would appreciate it if you could identify the bin for `Cc1ccc(F)cc1S(=O)(=O)N[C@@H]1CCN(Cc2ccc(-c3ccccc3)cc2)C1` and reply at your convenience.
[reply] bottom bin
